All figures here come from patent US20220073536A1.

System: cultured human mast cells (CHMC)
Experiment: CHMC low cell density IgE activation: tryptase assay
Format: cell-based
Conditions: low cell density CHMC, IgE activation, tryptase, 3 pt; read-out: LD Tryptase, CHMC, IgE, 3 pt
IC50 for assorted molecules

Cc1cc(Nc2ncc(F)c(Nc3ccc4c(c3)OC(F)(F)C(F)(F)O4)n2)cc(C)c1Cl :: > 10 µM
CN1CCN(c2ccc(Nc3ncc(F)c(Nc4ccc5c(n4)NCCO5)n3)cc2)CC1 :: < 10 µM
Fc1cnc(Nc2ccc3c(c2)OCCO3)nc1Nc1ccc2c(c1)OC(F)(F)C(F)(F)O2 :: < 10 µM
Fc1cnc(Nc2cccc(-c3ncco3)c2)nc1Nc1ccc2c(n1)NCCO2 :: < 10 µM
CCN(CC)CCNC(=O)c1ccc(Nc2ncc(F)c(Nc3ccc(Cl)c(OC)c3)n2)cc1 :: < 10 µM

In: Name the recorded IC50 of `COc1ccc(Nc2ncc(F)c(Nc3ccc4c(n3)NCCO4)n2)cc1Cl` , assay system cultured human mast cells (CHMC).
Out: < 10 µM

In: Name the recorded IC50 of `COC(=O)CNC(=O)c1ccc(Nc2ncc(F)c(Nc3ccc(OCc4nc(C)no4)cc3)n2)cc1` , assay system cultured human mast cells (CHMC).
Out: < 10 µM

In: Name the recorded IC50 of `CC1(C)Oc2ccc(Nc3nc(Nc4cc(Cl)c(O)c(Cl)c4)ncc3F)nc2NC1=O` , assay system cultured human mast cells (CHMC).
Out: < 10 µM

In: Name the recorded IC50 of COc1cc(Nc2ncc(F)c(NCC3COc4ccccc4O3)n2)cc(OC)c1 (stereo not shown) , assay system cultured human mast cells (CHMC).
Out: < 10 µM

In: Name the recorded IC50 of `Cc1cc(Nc2ncc(F)c(Nc3ccc4c(n3)NCCO4)n2)ccc1N1CCN(C)CC1` , assay system cultured human mast cells (CHMC).
Out: < 10 µM

====

Test system: cultured human mast cells (CHMC)
Test: CHMC low cell density IgE activation: tryptase assay
Assay type: cell-based
Details: Homo sapiens, Mast cell, low cell density, IgE activation, 3 pt; read-out: LD Tryptase, CHMC, IgE, 3 pt
Measured attribute: IC50

# annotated cases, reported IC50 shown
COc1ccc(Nc2nc(Nc3ccc4c(c3)NC(=O)C(C)(C)O4)ncc2F)nc1Cl :: < 10 µM
CC1(C)C(=O)Nc2cc(Nc3nc(Nc4ccc5oncc5c4)ncc3F)ccc2S1(=O)=O :: < 10 µM
C[C@@H]1Oc2ccc(Nc3nc(N)nc(-c4ccc5c(c4)nc(C(F)(F)F)n5CCO)c3F)cc2NC1=O :: < 10 µM

In: Name the recorded IC50 of CC1C(=O)Nc2cc(Nc3nc(Nc4ccc5[nH]c(C(F)(F)F)nc5c4)ncc3F)ccc2S1(=O)=O (centres unmarked) , assay system cultured human mast cells (CHMC).
Out: < 10 µM

In: Name the recorded IC50 of `Cn1nc(-c2ccccc2)cc1Nc1nc(Nc2cccc(-c3ncco3)c2)ncc1F` , assay system cultured human mast cells (CHMC).
Out: < 10 µM

In: Name the recorded IC50 of `COC(=O)c1cc(Nc2ncc(F)c(Nc3ccc(OC)c(OC)c3)n2)cc(-c2ncco2)c1` , assay system cultured human mast cells (CHMC).
Out: < 10 µM

In: Name the recorded IC50 of `CNC(=O)c1ccc(Nc2ncc(F)c(N(C)c3ccc(OC)c(OC)c3)n2)cc1Cl` , assay system cultured human mast cells (CHMC).
Out: < 10 µM

In: Name the recorded IC50 of `Cc1nc2cc(Nc3ncc(F)c(Nc4ccc(Cl)c(Cl)c4)n3)ccc2n1C` , assay system cultured human mast cells (CHMC).
Out: < 10 µM
